Test system: MDA-MB-468
METHOD_NOTES: phospho-S6 immunofluorescence (DAPI-normalised), per-plate z-score; higher = higher phospho-S6 signal (less pathway suppression)
CONDITION_SUMMARY: co-treatment: GDC0941 450 nM; 24 h
Where a name gives a salt, the structure may show the parent alone.

MOLECULE	phospho-S6 immunofluorescence (z-score)
CCC(N)(C(=O)O)c1ccc(C(=O)O)cc1 (stereo not given) (compound 10 µM)	0.66
CCOCCn1c(C2CCN(CCc3ccc(C(C)(C)C(=O)O)cc3)CC2)nc2ccccc21 [Bilastine] (compound 10 µM)	0.51
CN(C)N(C)C(=O)[C@@]1(Cc2ccccc2)CCCN(C(=O)[C@@H](Cc2c[nH]c3ccccc23)NC(=O)C(C)(C)N)C1 [Anamorelin (hydrochloride)] (compound 10 µM)	-1.14
COc1ccc(N2CCOCC2)c2sc(NC(=O)N3CCC(C)(O)CC3)nc12 [Tozadenant] (compound 10 µM)	0.02
C[C@H](NC(=O)CNC(=O)c1cccc(Cl)c1)c1ccccc1 (compound 10 µM)	0.04
CN1CCN(CC(=O)N2c3ccccc3C(=O)Nc3cccnc32)CC1 [Pirenzepine (dihydrochloride)] (compound 10 µM)	1.51
O=c1n(CCCN2CCN(c3cccc(Cl)c3)CC2)nc2ccccn12 [Trazodone (hydrochloride)] (compound 10 µM)	0.41
CS(=O)(=O)c1cc(F)cc2c3c(n(Cc4ccc(Cl)cc4)c12)[C@@H](CC(=O)O)CC3 [Laropiprant] (compound 10 µM)	0.48
C=CCN1CCc2nc(N)sc2CC1 (compound 10 µM)	0.68
Cc1nc2n(c(=O)c1CCN1CCC(c3noc4cc(F)ccc34)CC1)CCCC2O (stereo not given) [Paliperidone] (compound 10 µM)	0.37
CCN1CCC[C@H]1CNC(=O)c1cc(S(N)(=O)=O)ccc1OC [Levosulpiride] (compound 10 µM)	0.22
CC(C)(Cc1ccc2ccccc2c1)NC[C@@H](O)COc1cccc(Cl)c1C#N (compound 10 µM)	-3.37
O=C(O)CC1CCC2(CC1)CCN(c1cc(OC(F)(F)F)ccc1Cl)CC2 (compound 10 µM)	0.09
CN1CCC[C@@H]1CCO[C@](C)(c1ccccc1)c1ccc(Cl)cc1 [Clemastine (fumarate)] (compound 10 µM)	0.73
CN(C)CC/C=C1/c2ccccc2Sc2ccc(Cl)cc21 [Chlorprothixene] (compound 10 µM)	0.1

###

Test system: MDA-MB-468
METHOD_NOTES: phospho-S6 immunofluorescence (DAPI-normalised), per-plate z-score; higher = higher phospho-S6 signal (less pathway suppression)
CONDITION_SUMMARY: co-treatment: lapatinib 1 uM; 24 h
Where a name gives a salt, the structure may show the parent alone.
As shown below, each of these compounds has a reported phospho-S6 immunofluorescence (z-score) value.
READOUT: phospho-S6 immunofluorescence (z-score)

>>> df
                                   compound                                  readout  recorded_value
0  Clc1cccc(COc2cncc(N3CCNCC3)n2)c1 (compound 10 µM)  phospho-S6 immunofluorescence (z-score)           -4.09
1  CN(C)CCc1c[nH]c2ccc(Cn3cncn3)cc12 [Rizatriptan (benzoate)] (compound 10 µM)  phospho-S6 immunofluorescence (z-score)            0.19
2  C[C@@H]1CCCN1CCc1cc2cc(-c3ccc(C#N)cc3)ccc2o1 (compound 10 µM)  phospho-S6 immunofluorescence (z-score)           -4.56
3  CCCN(CCN1CCN(c2ccccc2OC)CC1)C1CCc2ncsc2C1 (stereo not drawn) [ST-836 (hydrochloride)] (compound 10 µM)  phospho-S6 immunofluorescence (z-score)           -0.62
4  CN1N=C2CCN(C(=O)[C@@H](COCc3ccccc3)NC(=O)C(C)(C)N)C[C@@]2(Cc2ccccc2)C1=O [Capromorelin (Tartrate)] (compound 10 µM)  phospho-S6 immunofluorescence (z-score)           -0.67
5  CCN(Cc1ccncc1)C(=O)C(CO)c1ccccc1 (stereo not drawn) [Tropicamide] (compound 10 µM)  phospho-S6 immunofluorescence (z-score)            1.42
6  COc1cc(NC(=O)c2ccccn2)ccc1Cl (compound 10 µM)  phospho-S6 immunofluorescence (z-score)           -0.21
7  Cn1c(SCC(=O)N2CCC[C@H]2C(=O)Nc2ccccc2-c2ccccc2)nc2ccccc21 (compound 10 µM)  phospho-S6 immunofluorescence (z-score)            1.59

###

Measured phospho-S6 immunofluorescence (z-score), listed per entry for reference.
System: MDA-MB-468
METHOD_NOTES: phospho-S6 immunofluorescence (DAPI-normalised), per-plate z-score; higher = higher phospho-S6 signal (less pathway suppression)
CONDITION_SUMMARY: co-treatment: lapatinib 1 uM; 24 h
Counter-ions that a name gives are not always drawn.

COMPOUND	TESTED_ON	phospho-S6 immunofluorescence (z-score)
c1cnc(NCc2ccc(CNc3ncccn3)cc2)nc1 (compound 10 µM)	MDA-MB-468	-0.26
Oc1ccc(C2CNCCc3c2cc(O)c(O)c3Cl)cc1 (centres undefined) [Fenoldopam (mesylate)] (compound 10 µM)	MDA-MB-468	-0.01
C[C@H](Cc1cc2c(c(C(N)=O)c1)N(CCCO)CC2)NCCOc1ccccc1OCC(F)(F)F [Silodosin] (compound 10 µM)	MDA-MB-468	-0.02
NC1=NCC2c3ccccc3Cc3ccccc3N12 (centres undefined) [Epinastine] (compound 10 µM)	MDA-MB-468	-0.81
CN(C)C(=O)C(CCN1CCC(O)(c2ccc(Cl)cc2)CC1)(c1ccccc1)c1ccccc1 [Loperamide (hydrochloride)] (compound 10 µM)	MDA-MB-468	-3.22
CC(C)(C(=O)O)c1ccc(C(O)CCCN2CCC(C(O)(c3ccccc3)c3ccccc3)CC2)cc1 (centres undefined) [Fexofenadine (hydrochloride)] (compound 10 µM)	MDA-MB-468	-0.84
COc1cccc(-c2c(C)n(Cc3c(F)cccc3C(F)(F)F)c(=O)n(C[C@H](NCCCC(=O)O)c3ccccc3)c2=O)c1F [Elagolix] (compound 10 µM)	MDA-MB-468	-0.03
Clc1ccc2c(c1)N=C(N1CCNCC1)c1ccccc1N2 [N-Desmethylclozapine] (compound 10 µM)	MDA-MB-468	-3.16
CC(C)COc1ccc(CNC(=O)N(Cc2ccc(F)cc2)C2CCN(C)CC2)cc1 [Pimavanserin] (compound 10 µM)	MDA-MB-468	-2.95
CC(C)[N+]1(C)[C@@H]2CC[C@H]1C[C@@H](OC(=O)C(CO)c1ccccc1)C2 (some centres undefined) [Ipratropium (bromide)] (compound 10 µM)	MDA-MB-468	0.28
O=C(c1ccc(F)cc1)C1CCN(CCn2c(=O)[nH]c3ccccc3c2=O)CC1 [Ketanserin] (compound 10 µM)	MDA-MB-468	-0.02
COc1cc2nc(N(C)CCCNC(=O)C3CCCO3)nc(N)c2cc1OC (centres undefined) [Alfuzosin] (compound 10 µM)	MDA-MB-468	0.71
COc1ccc2[nH]cc(CCNC(C)=O)c2c1 [Melatonin] (compound 10 µM)	MDA-MB-468	0.24
CN1CCN(CCCN2c3ccccc3Sc3ccc(C(F)(F)F)cc32)CC1 [Trifluoperazine (dihydrochloride)] (compound 10 µM)	MDA-MB-468	-5.54

###

Test system: MDA-MB-468
METHOD_NOTES: phospho-S6 immunofluorescence (DAPI-normalised), per-plate z-score; higher = higher phospho-S6 signal (less pathway suppression)
CONDITION_SUMMARY: co-treatment: GDC0941 450 nM; 24 h
Structures can show the parent of a compound that is named as a salt.
// label = class 1 if phospho-S6 immunofluorescence (z-score) is not less than -0.4, otherwise class 0

COMPOUND	LABEL_CLASS
CC(C)C(=O)OCC(=O)[C@@]12O[C@H](C3CCCCC3)O[C@@H]1C[C@H]1[C@@H]3CCC4=CC(=O)C=C[C@]4(C)[C@H]3[C@@H](O)C[C@@]12C [Ciclesonide] (compound 10 µM)	class 0
O=c1ccccn1CC1(O)CCN(Cc2ccccc2)CC1 (compound 10 µM)	class 1
CC(C)c1noc(N2CCC(COc3ccc(-c4ccc(S(C)(=O)=O)cc4)nc3)CC2)n1 (compound 10 µM)	class 0
CC(CCc1ccccc1)NCC(O)c1ccc(O)c(C(N)=O)c1 (centres undefined) [Labetalol (hydrochloride)] (compound 10 µM)	class 1
CN(C)CC/C=C1/c2ccccc2COc2ccc(CC(=O)O)cc21 [Olopatadine (hydrochloride)] (compound 10 µM)	class 1
c1ccc2c(c1)N=C(N1CCNCC1)c1ccccc1N2 [DREADD agonist 21] (compound 10 µM)	class 1
CN1CC2c3ccccc3Oc3ccc(Cl)cc3C2C1 (centres undefined) [Asenapine (maleate)] (compound 10 µM)	class 1
C[C@]12CCC(=O)C=C1CC[C@@H]1[C@@H]2CC[C@@]2(C)[C@H]1CC[C@]2(O)C(=O)CO [Cortodoxone] (compound 10 µM)	class 0
CCC(=O)OCC(=O)[C@@]1(OC(=O)CC)[C@@H](C)C[C@H]2[C@@H]3CCC4=CC(=O)C=C[C@]4(C)[C@@]3(F)[C@@H](O)C[C@@]21C [Betamethasone dipropionate] (compound 10 µM)	class 0
Clc1cccc(COc2cncc(N3CCNCC3)n2)c1 (compound 10 µM)	class 0
COCc1nnc(N2CC(Oc3ccc(F)cc3Cl)C2)n1-c1ccc(OC)nc1 (compound 10 µM)	class 1
CCN(CC)CC#CCOC(=O)C(O)(c1ccccc1)C1CCCCC1 (centres undefined) [Oxybutynin] (compound 10 µM)	class 0
CCCCc1nc(Cl)c(CO)n1Cc1ccc(-c2ccccc2-c2nnn[nH]2)cc1 [Losartan (potassium)] (compound 10 µM)	class 1
CCOC(=O)c1ccc(-n2cc(Cc3cnc(OCC)nc3)c(=O)nc2SCc2ccc(F)cc2)cc1 (compound 10 µM)	class 0

Values compiled from the supplement of paper PMC7411640.
